system: SF-295; assay: NCI tumour cell line growth inhibition, 48 h
Activity calls are given as the source filed them. Rule as the data show it: active = GI50 up to about 1.1 µM and inactive = higher.
# GI50 per entry

[
  {
    "molecule": "O=C1c2ccccc2C(=O)c2nc(-c3ccccc3)c(-c3ccccc3)nc21",
    "GI50": "11 µM (inactive)"
  },
  {
    "molecule": "C=C1C[C@]23CC[C@@H]4C(CO)(CO)CC(=O)C[C@]4(C)[C@@H]2C(O)C[C@H]1C3 (stereo not given in full)",
    "GI50": "> 100 µM (inactive)"
  },
  {
    "molecule": "Cc1ccc(OP2(=O)Oc3ccc4ccccc4c3CN2c2ccc(Cl)cc2)cc1C (stereo not given)",
    "GI50": "> 100 µM (inactive)"
  },
  {
    "molecule": "CC(=O)OC/C=C/Cn1nc(Br)c(=O)[nH]c1=O",
    "GI50": "> 100 µM (inactive)"
  },
  {
    "molecule": "COC(=O)/C=C/c1cc(OC)c(OC)c(OC)c1",
    "GI50": "> 100 µM (inactive)"
  }
]
